System: CP247
Assay: qHTS profiling for inhibitors of Plasmodium falciparum proliferation (AID 504749); note: nearly all actives have a fitted effect of over 60% in size
Conditions: P. falciparum in erythrocytes, SYBR Green DNA, 72 h; series mostly up to 28.7 µM
Records with an inconclusive call do not appear. Calls of active or inactive are those of the source. Calls come from the whole dose curve; as a rule, active = well fitted inhibition curve with a large enough effect; inconclusive = small, poorly fitted or top-dose-only effect; inactive = flat fitted curve, though single readings scatter.
Select the correct class. Options are 1.0 (active), 0.0 (inactive) and nothing else.

Example results:
{"Compound": "O=S(=O)(O)c1ccc2nc(-c3ccccc3)[nH]c2c1", "Label": 0.0}
{"Compound": "CCCCCCCCCCCCCCCC[n+]1ccccc1", "Label": 1.0}
{"Compound": "CCCCCCCCCCCCCCCC[N+](C)(C)Cc1ccccc1", "Label": 1.0}
{"Compound": "CC(NCCC(c1ccccc1)c1ccccc1)c1ccccc1 (configuration not stated)", "Label": 1.0}
{"Compound": "CN1CCCN(C(c2ccccc2)c2ccc(Cl)cc2)CC1 (configuration not stated)", "Label": 1.0}
{"Compound": "O=[N+]([O-])c1ccc(O)c2ncccc12", "Label": 1.0}

Now examine the next entry.
Task: How did this test come out for Nc1ncnc2nc[nH]c12 ?
Output: 0.0
